Ref: ChEMBL document CHEMBL1139396

- PROTOCOL DETAILS: Cmax in rat at 5 mg/kg, iv
- Format: ADME, organism-based
- Design: dose 5 mg/kg, route intravenous
- CONDITION SET: in vivo

# SMILES STRUCTURE, MEASUREMENT UNIT, Cmax
rows = [
    ("Cc1cccc(C)c1/C=C/n1cnc2c(Nc3ccc(P(C)(C)=O)cc3)ncnc21", "ng/mL", 4320),
    ("Cc1cccc(Cl)c1/C=C/n1cnc2c(Nc3ccc(P(C)(C)=O)cc3)ncnc21", "ng/mL", 4590),
    ("Cc1cccc(C)c1/C=C/n1cnc2c(Nc3ccc(P(C)(C)=O)cc3)nc(C(C)C)nc21", "ng/mL", 1220),
    ("CCCP(=O)(CCC)c1ccc(Nc2ncnc3c2ncn3/C=C/c2c(C)cccc2C)cc1", "ng/mL", 5140),
    ("Cc1ccc2[nH]ncc2c1/C=C/n1cnc2c(Nc3ccc(P(C)(C)=O)cc3)ncnc21", "ng/mL", 7080),
]

---

- TARGET ENTITY: Vascular endothelial growth factor receptor 3 (Homo sapiens)
- Sequence (P35916 whole entry): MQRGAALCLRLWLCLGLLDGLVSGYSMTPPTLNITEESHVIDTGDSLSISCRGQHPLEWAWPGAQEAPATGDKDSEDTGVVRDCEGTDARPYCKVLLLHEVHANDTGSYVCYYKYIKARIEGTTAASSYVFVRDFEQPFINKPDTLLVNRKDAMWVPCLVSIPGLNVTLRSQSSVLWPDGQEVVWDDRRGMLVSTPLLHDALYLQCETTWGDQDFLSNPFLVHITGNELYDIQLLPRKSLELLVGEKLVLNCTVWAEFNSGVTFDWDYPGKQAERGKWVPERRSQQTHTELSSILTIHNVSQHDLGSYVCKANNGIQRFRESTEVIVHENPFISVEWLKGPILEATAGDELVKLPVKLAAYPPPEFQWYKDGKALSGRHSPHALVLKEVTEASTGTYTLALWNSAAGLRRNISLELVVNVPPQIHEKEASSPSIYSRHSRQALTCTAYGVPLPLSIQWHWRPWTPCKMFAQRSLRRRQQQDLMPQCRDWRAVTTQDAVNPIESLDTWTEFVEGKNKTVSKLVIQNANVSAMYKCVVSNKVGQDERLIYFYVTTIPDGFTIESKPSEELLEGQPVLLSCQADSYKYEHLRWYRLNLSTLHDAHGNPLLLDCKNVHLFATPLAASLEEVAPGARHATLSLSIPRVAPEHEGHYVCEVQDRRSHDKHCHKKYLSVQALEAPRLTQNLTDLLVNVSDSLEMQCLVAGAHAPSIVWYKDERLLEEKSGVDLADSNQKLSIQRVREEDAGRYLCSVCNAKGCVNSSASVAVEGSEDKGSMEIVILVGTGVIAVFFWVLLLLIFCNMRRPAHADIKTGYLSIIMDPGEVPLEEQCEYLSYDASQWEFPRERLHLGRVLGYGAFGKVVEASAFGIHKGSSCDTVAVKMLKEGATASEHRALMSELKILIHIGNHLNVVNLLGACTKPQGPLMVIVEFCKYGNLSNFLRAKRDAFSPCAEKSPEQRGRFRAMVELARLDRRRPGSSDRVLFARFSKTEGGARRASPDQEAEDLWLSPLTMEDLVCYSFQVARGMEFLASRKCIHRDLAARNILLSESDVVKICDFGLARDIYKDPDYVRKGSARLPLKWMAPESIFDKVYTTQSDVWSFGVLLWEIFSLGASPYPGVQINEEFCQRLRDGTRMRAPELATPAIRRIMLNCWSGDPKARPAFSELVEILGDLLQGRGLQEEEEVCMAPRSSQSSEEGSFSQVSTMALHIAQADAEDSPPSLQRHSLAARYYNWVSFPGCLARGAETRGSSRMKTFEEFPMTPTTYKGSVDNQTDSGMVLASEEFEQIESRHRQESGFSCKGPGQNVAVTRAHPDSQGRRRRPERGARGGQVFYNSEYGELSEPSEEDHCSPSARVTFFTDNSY
pIC50: −log10 of the molar value.
OBSERVATION TYPE: pIC50

# SMILES STRUCTURE, TARGET ENTITY, OBSERVATION TYPE, NUMERIC READOUT
measured = [
    ("Cc1cccc(C)c1/C=C/n1cnc2c(Nc3ccc(P(C)(C)=O)cc3)ncnc21", "Vascular endothelial growth factor receptor 3 (Homo sapiens)", "pIC50", 6.82),
]

---

- TARGET ENTITY: Cyclin-dependent kinase 2 (Homo sapiens)
- PROTOCOL DETAILS: Inhibition of CDK2/CyclinA
OBSERVATION TYPE: IC50

# SMILES STRUCTURE, RESULT
records = [
    ("Cc1cccc(C)c1/C=C/n1cnc2c(Nc3ccc(P(C)(C)=O)cc3)ncnc21", "> 1000 nM"),
]

---

- TARGET ENTITY: Proto-oncogene tyrosine-protein kinase Src (Homo sapiens, UniProt P12931)
- Sequence (P12931 2-536 limits assumed): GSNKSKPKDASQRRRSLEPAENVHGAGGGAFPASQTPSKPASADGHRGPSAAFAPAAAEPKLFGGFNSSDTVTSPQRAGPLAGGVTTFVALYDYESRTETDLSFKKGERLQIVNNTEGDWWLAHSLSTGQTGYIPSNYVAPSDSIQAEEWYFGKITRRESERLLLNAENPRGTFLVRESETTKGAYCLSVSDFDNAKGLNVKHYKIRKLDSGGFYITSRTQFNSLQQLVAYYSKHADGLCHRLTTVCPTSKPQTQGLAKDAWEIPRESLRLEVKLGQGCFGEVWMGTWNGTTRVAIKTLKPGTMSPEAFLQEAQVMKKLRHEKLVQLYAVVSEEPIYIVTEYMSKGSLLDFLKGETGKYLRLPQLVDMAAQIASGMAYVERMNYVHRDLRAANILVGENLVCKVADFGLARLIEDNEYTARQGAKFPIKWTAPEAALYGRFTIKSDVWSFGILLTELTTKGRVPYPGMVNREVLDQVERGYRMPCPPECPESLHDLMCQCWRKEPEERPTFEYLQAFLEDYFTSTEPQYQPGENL
pIC50: −log10 of the molar value.
OBSERVATION TYPE: pIC50

# SMILES STRUCTURE, TARGET ENTITY, OBSERVATION TYPE, RESULT
measured = [
    ("Cc1cccc(C)c1/C=C/n1cnc2c(Nc3ccc(P(C)(C)=O)cc3)nc(CCC#N)nc21", "Proto-oncogene tyrosine-protein kinase Src (Homo sapiens, UniProt P12931)", "pIC50", "> 9.34"),
    ("Cc1cccc(C)c1/C=C/n1cnc2c(Nc3ccc(P(C)(C)=O)cc3)nc(N3CCN(C)CC3)nc21", "Proto-oncogene tyrosine-protein kinase Src (Homo sapiens, UniProt P12931)", "pIC50", "> 9.64"),
    ("Cc1cccc(C)c1/C=C/n1cnc2c(Nc3ccc(P(C)(C)=O)cc3)nc(-n3ccnc3)nc21", "Proto-oncogene tyrosine-protein kinase Src (Homo sapiens, UniProt P12931)", "pIC50", "> 9.34"),
]

---

- TARGET ENTITY: UniProt:P54760
- Sequence (P54760 whole entry): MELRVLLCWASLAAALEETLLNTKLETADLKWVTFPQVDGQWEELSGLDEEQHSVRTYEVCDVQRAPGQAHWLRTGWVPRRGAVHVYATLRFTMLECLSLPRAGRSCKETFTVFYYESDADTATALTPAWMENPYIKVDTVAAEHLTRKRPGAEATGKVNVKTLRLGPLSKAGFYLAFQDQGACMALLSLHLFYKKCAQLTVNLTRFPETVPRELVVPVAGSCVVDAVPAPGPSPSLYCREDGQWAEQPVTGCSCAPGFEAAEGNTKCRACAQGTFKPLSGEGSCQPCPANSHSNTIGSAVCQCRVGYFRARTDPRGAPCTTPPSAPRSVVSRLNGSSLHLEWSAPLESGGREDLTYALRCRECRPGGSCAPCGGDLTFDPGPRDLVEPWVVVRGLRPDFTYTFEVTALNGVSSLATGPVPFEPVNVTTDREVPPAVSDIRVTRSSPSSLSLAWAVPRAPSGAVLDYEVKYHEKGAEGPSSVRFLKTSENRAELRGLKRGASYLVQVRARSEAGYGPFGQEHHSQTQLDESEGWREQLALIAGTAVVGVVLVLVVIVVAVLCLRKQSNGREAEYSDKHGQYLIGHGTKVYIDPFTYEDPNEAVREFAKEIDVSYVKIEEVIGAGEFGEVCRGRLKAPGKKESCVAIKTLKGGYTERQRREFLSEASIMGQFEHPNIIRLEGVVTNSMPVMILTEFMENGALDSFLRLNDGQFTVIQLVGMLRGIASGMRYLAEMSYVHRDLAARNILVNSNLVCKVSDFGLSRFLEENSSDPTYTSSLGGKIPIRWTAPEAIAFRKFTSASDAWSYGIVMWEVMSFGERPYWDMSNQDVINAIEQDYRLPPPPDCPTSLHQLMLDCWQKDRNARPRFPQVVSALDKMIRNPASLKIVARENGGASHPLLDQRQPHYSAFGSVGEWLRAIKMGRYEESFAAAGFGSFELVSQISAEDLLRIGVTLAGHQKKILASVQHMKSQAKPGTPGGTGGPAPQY
pIC50: −log10 of the molar value.

# SMILES STRUCTURE, pIC50
measured = [
    ("Cc1cccc(C)c1/C=C/n1cnc2c(Nc3ccc(P(C)(C)=O)cc3)ncnc21", 7.52),
]
